System: NCI-H322M lung
Assay: NCI-60 one-dose screen, 48 h (100 = growth as untreated, 0 = no growth, -100 = all killed)
Details: 10 µM unless noted
The panel holds about 83,000 compounds, 20% with a hit somewhere; the sample as a whole holds those more often.
Label key: 1 means growth under 90%; 0 means growth of 90% or more.

Reference set, count: 6
CCNC(=O)C#Cc1ccc2c(C(=Nc3ccc(CN(C)C)cc3)c3ccccc3)c(O)[nH]c2c1 : 1
CCCNC(=O)c1cn2ncnc(Nc3cc(C(=O)NC4CC4)ccc3C)c2c1C : 1
C[C@@H](Oc1cc(C(=O)Nc2ccc(C(=O)N3CCN(C)CC3)cc2)nnc1N)c1c(Cl)ccc(F)c1Cl : 0
CCCCCCCCCNCCCCCCCCC : 0
O=C(Cn1ccc2ccccc21)Nc1ccc(-c2nc3ccccc3s2)cc1 : 0
COCc1c(-c2ccc(NC(=O)Nc3cc(C(F)(F)F)ccc3F)c(F)c2)c2c(N)ncnn2c1CN1CCOCC1 : 1

Enquiry: Item CCNC(=O)Nc1nc2ccc(Oc3ccnc(C(=O)NC)c3)cc2s1 : growth beneath 90%, strictly?
Return: 0

Enquiry: In the record for FC(F)c1nc2ccccc2n1-c1nc(N2CCOCC2)nc(N2CCOCC2)n1 , is growth less than 90%?
Return: 1

---

Test system: COLO 205 colon
Experiment: NCI-60 one-dose screen, 48 h (100 = growth as untreated, 0 = no growth, -100 = all killed)
Settings: 10 µM unless noted
About 83,000 compounds went through this panel and 20% of them were active in at least one assay; those are over-represented in the sample as a whole.
Rule for this label: T means growth is less than -30%; F means growth is at least -30%.

CC[C@H](CO)Nc1nc(NCc2ccccc2)c2ncn(C(C)C)c2n1 : F

Enquiry: Is -30% strictly greater than the compound's reported growth? compound: CC(C)(C)c1ccc(Cn2cc(CSc3nc4ccccc4s3)nn2)cc1
Return: F

Enquiry: In the record for N#Cc1c(C(F)(F)F)cc(Nc2ccc3nc(NCCN4CCCC4)oc3c2)n2c1nc1ccccc12 , is growth less than -30%?
Return: F

Enquiry: Confirm or reject: growth of C=CCN(/C=C1/C(=O)O[C@H](COC)[C@@]2(C)C1=C(O)C(=O)C1=C2[C@H](OC(C)=O)C[C@]2(C)C(=O)CC[C@@H]12)CC=C lies strictly below -30%
Return: F

Enquiry: Check if growth falls below -30% for CSC1=C(N)C(=O)c2[nH]cc(CO)c2C1=N .
Return: T

Enquiry: Is growth of CN(C)C[C@@H]1CCn2cc(c3ccccc32)C2=C(C(=O)NC2=O)c2cn(c3ccccc23)CCO1 strictly below -30%?
Return: T

Enquiry: Check if growth falls below -30% for Fc1ccc(NCc2cn(-c3ccccc3)nc2-c2ccc(OCc3ccccc3)cc2)cc1Cl .
Return: F

Enquiry: Given COc1ccc2c(CCCC(c3ccccc3)c3ccccc3)c3[n+](cc2c1OC)CCc1cc2c(cc1-3)OCO2 , is recorded growth strictly lower than -30%?
Return: T

Enquiry: growth strictly < -30% for this compound? COc1cc(-c2nc(C(=O)NCC(=O)O)nn2-c2ccc(Cl)cc2)cc(OC)c1OC
Return: F

Enquiry: Quick check: growth of COc1cc2c(cc1OCCCN1Cc3ccc(OCCCCC(=O)N4CCC(CCN5CCCC5)CC4)cc3C1)N=C(N)C21CCCC1 under -30%?
Return: F

---

Test system: PC-3 prostate
Test: NCI-60 one-dose screen, 48 h
Settings: 10 µM unless noted
This is part of a sample that, as a whole, favours compounds with a hit. Of some 83,000 tested, about 20% had one in any assay. Active and inactive are the calls of the source. Rule for the calls: active = growth percent below 10; inactive = the rest.
Give one outcome, nothing more. List: active, inactive

Example entries and their recorded answers appear below.
O=C1CC(c2cccc(F)c2)c2c(n[nH]c2-c2ccc(Cl)cc2)N1 (centres undefined) : inactive
NC(=O)c1c(OCc2c(F)cc(Br)cc2F)nsc1NC(=O)NCCCCN1CCCC1 : active
Nc1cc2c(cc1Br)-c1c(C(=O)O)cccc1C2O (centres undefined) : inactive
Cc1cc2c(-c3nc4ccccn4c3NC3CCCCC3)c(O)c(O)cc2c(O)c1-c1c(C)cc2c(-c3nc4ccccn4c3NC3CCCCC3)c(O)c(O)cc2c1O : inactive

Okay, next one:
Enquiry: Record lookup: outcome of this test for C1=C\COCc2cc(ccc2OCCN2CCCC2)Nc2nccc(n2)-c2cccc(c2)COC/1 ?
Return: active

---

Test system: SF-268 CNS
Test: NCI-60 one-dose screen, 48 h (100 = growth as untreated, 0 = no growth, -100 = all killed)
Details: 10 µM unless noted
Protocol: Cells are grown in 96 well plates and exposed to the test compound for 48 hours. Compounds are tested at a single concentration, which is 10^-5 M for most compounds. The reported endpoint is percent growth (GI% or GIPRCNT), where numbers from 0 - 100% represent growth inhibition, and numbers from -100% - 0 represent cell death. For example, a value of 40 represents 60% growth inhibition. A value of 0 means no net growth occurred over the course of the experiment. […]
This is part of a sample that, as a whole, favours compounds with a hit. Of some 83,000 tested, about 20% had one in any assay.
Listing of recorded growth by entry.
# output: bare number, implied unit %

COc1cc(C2CC(c3ccc(Cl)cc3)=NN2c2ccc(Cl)cc2)cc(OC)c1OC (stereo not given) : 90.6
O=C(COc1cccc(/C=C2\Cc3ccc(Cl)cc3C2=O)c1)Nc1nccs1 : 108
CCN(CC)CCOc1ccc(/C(=C(\C)c2ccc(Cl)cc2)c2ccc(Cl)cc2)cc1 : 80.7
Cc1ncc(-c2ccnc(Nc3ccc(S(C)(=O)=O)cc3)n2)n1C(C)C : 3.67

Proceed to the following item.
Enquiry: Which measured growth belongs to Cc1nc2cc(-c3nn(C(C)C)c4ncnc(N)c34)ccc2o1 , tested on SF-268 CNS?
Return: 4.35

---

Test system: M14 melanoma
Assay: NCI-60 one-dose screen, 48 h (100 = growth as untreated, 0 = no growth, -100 = all killed)
Conditions: 10 µM unless noted
Compounds without any hit were thinned out: in the full panel of roughly 83,000, 20% have a hit.
growth less than 60% is 1; growth greater than or equal to 60% is -1.

Illustrative cases are given below, each with its answer.
c1cn2cc(-c3ccc4cn[nH]c4c3)nc(Nc3ccc(N4CCOCC4)cc3)c2n1 : 1
Cn1ccnc1C(=O)/C=C/c1ccc(CC(=O)Nc2ccc(Br)cc2)cc1 : 1
CC1(C)NC(=O)c2[nH]c3c(Cl)c(Cl)ccc3c2C1C#N (stereo not given) : -1

Enquiry: Item COc1cc(NCCCN)c2ncccc2c1 : growth beneath 60%, strictly?
Return: -1

Enquiry: Does this compound meet the criterion growth < 60%? Cc1ccc(NC(=O)c2ccc(CN3CC[C@H](N(C)C)C3)c(C(F)(F)F)c2)cc1Nc1nccc(-c2cncnc2)n1
Return: 1

Enquiry: Determine whether this compound shows growth lower than 60% (ties excluded): Nc1nc(=S)c2ncn(C3OC(COC(=O)c4ccc(Cl)cc4)C(OC(=O)c4ccc(Cl)cc4)C3OC(=O)c3ccc(Cl)cc3)c2[nH]1 (stereo not given)
Return: -1

Enquiry: Hello, I'm reviewing records and need to know if growth of O=C(COc1ccc(/C=C2\Cc3ccc(Cl)cc3C2=O)cc1)Nc1nccs1 is below 60%. Could you check?
Return: -1

Enquiry: Dear colleague, could you confirm whether growth of C[C@H](NC(=O)c1c(N)nn2cccnc12)c1cc2cccc(C#Cc3cnn(C)c3)c2c(=O)n1-c1ccccc1 falls below 60%? Thanks.
Return: 1

Enquiry: Field: below-cutoff. Rule: recorded growth strictly less than 60%. Subject: FC(F)(F)c1ccc(CNc2ccc(Cc3c[nH]c4ncc(Cl)cc34)cn2)cn1
Return: 1

Enquiry: Quick check: does COC[C@@H](C)n1c(C2CCOCC2)nc2c1C1C=C(OC)C(c3c(C)noc3C)=CC1N=C2 (stereo not given in full) have growth under 60%?
Return: 1

---

The following compounds are listed with their measured growth values.
System: NCI-H460 lung
Test: NCI-60 one-dose screen, 48 h (100 = growth as untreated, 0 = no growth, -100 = all killed)
Conditions: 10 µM unless noted
This is part of a sample that, as a whole, favours compounds with a hit. Of some 83,000 tested, about 20% had one in any assay.
Supply the numeric figure in %, leaving out any unit text.

Below are worked cases with known answers.
CCN(CC)CCN1C(=O)c2cccc3c(-c4ccc5c(c4)ncn5C4CCCCC4)ccc(c23)C1=O : -30.9
CN1CCN(c2ccc(C(=O)Nc3n[nH]c4ccc(Cc5cc(F)cc(F)c5)cc34)c(NC3CCOCC3)c2)CC1 : -80.3
O=c1[nH]ccc2c(S(=O)(=O)N3CCCNCC3)cccc12 : 95.3
Cc1sc2c(c1C)c(=O)nc1c(-c3nc(-c4ccccc4)cs3)n[nH]n12 : 96.2
CNC(=O)c1ccc(Nc2ncc(C(F)(F)F)c(NCc3nccnc3N(C)S(C)(=O)=O)n2)cc1 : 0.647
Clc1ccc(/C=C/c2cc(N3CCOCC3)c3cc(Cl)c(Cl)cc3n2)cc1 : 95
CC(=O)CC1CCCC1c1ccc2ccccc2c1 (stereo not given) : 101
CCc1cc2c(c3ccc(C(=O)CBr)cc13)CCCC2 : 109
C/C(=C(/c1ccc(Cl)cc1)c1ccc(OCCN2CCCC2)cc1)c1ccccc1 : 41.5

Read the next record carefully.
Enquiry: Look up growth: COc1c(C(NC(=O)c2ccccc2)c2sccc2C)cc(Cl)c2cccnc12 (stereo not given)
Return: 106
